- Test system: Streptococcus pneumoniae
- experiment-description: Antibacterial activity against Streptococcus pneumoniae A9585 after 24 hrs
- Type: functional
- condition-description: A9585, 24 h
# MIC values compiled below
Use µg/mL as the unit, but write only the number.

Documented MIC of C=C[C@]1(C)C[C@@H](OC(=O)CO)[C@@]2(C)C(=O)[C@](CCC(=O)O)(CCC2C)[C@@H](C)[C@@H]1O (some centres not stated) : 8

Documented MIC of C=C[C@]1(C)C[C@@H](OC(=O)CO)[C@@]2(C)C(=O)[C@](CCNC(=O)OCc3ccccc3)(CCC2C)[C@@H](C)[C@@H]1O (some centres not stated) : 0.25

Documented MIC of C=C[C@]1(C)C[C@@H](OC(=O)CSc2cccc(N)c2)[C@@]2(C)C(=O)[C@](CCC(=O)N(CC)CC)(CCC2C)[C@@H](C)[C@@H]1O (some centres not stated) : 4

---
Documented MIC of C=C[C@]1(C)C[C@@H](OC(=O)CSc2cccc(N)c2)[C@@]2(C)C(=O)[C@](CCC(=O)O)(CCC2C)[C@@H](C)[C@@H]1O (some centres not stated) : 0.125

Documented MIC of C=C[C@]1(C)C[C@@H](OC(=O)CSc2ccccn2)[C@@]2(C)C(=O)[C@](CCC(=O)O)(CCC2C)[C@@H](C)[C@@H]1O (some centres not stated) : 8

###

- System: Streptococcus pneumoniae
- experiment-description: Antibacterial activity against Streptococcus pneumoniae A9585 after 24 hrs
- Format: functional
- condition-description: A9585, 24 h
property: MIC (µg/mL)
Use µg/mL as the unit, but write only the number.

Some compounds with recorded MIC:
Documented MIC of C=C[C@]1(C)C[C@@H](OC(=O)CO)[C@@]2(C)C(=O)[C@](CCNC(=O)OCC)(CCC2C)[C@@H](C)[C@@H]1O (some centres undefined) : 0.25

Documented MIC of C=C[C@]1(C)C[C@@H](OC(=O)CSc2ccncc2)[C@@]2(C)C(=O)[C@](CCC(=O)O)(CCC2C)[C@@H](C)[C@@H]1O (some centres undefined) : 64

Now for the compound whose MIC we want.
Documented MIC of C=C[C@]1(C)C[C@@H](OC(=O)CO)[C@@]2(C)C(=O)[C@](CCCNC(=O)c3ccno3)(CCC2C)[C@@H](C)[C@@H]1O (some centres undefined) : 2

src = ChEMBL document CHEMBL1145531
